Reference for the values: patent US9266830B2

- System: Boophilus microplus
- protocolSummary: Boophilus microplus (dip)
- Format: in vivo
- studyConditions: application rate 100 ppm, adult engorged females, after 7 days
- Description: Solvent: dimethyl sulfoxide To produce a suitable preparation of active compound, 10 mg of active compound are dissolved in 0.5 ml solvent, and the concentrate is diluted with water to the desired concentration. […] Egg deposition of fertile eggs is monitored after. After 7 days mortality in % is determined 100% means that all the ticks have been killed; 0% means that none of the ticks have been killed.
measuredProperty: activity (mortality in %)
Supply the numeric figure in %, leaving out any unit text.

Recorded results for 2 compounds are shown here.
1. CC=CC(=O)NCc1ccc(N2CCC(c3cc(Cl)cc(Cl)c3)(C(F)(F)F)C2)cc1C(F)(F)F (stereo not shown)
80
2. O=C(NCc1ccc(N2CCC(c3cc(C(F)(F)F)cc(C(F)(F)F)c3)(C(F)(F)F)C2)cc1C(F)(F)F)NC1CC1 (stereo not shown)
80

Find the recorded activity (mortality in %) belonging to CNC(=O)NCc1ccc(N2CCC(c3cc(C(F)(F)F)cc(C(F)(F)F)c3)(C(F)(F)F)C2)cc1C(F)(F)F (stereo not shown) and report it.
80

Next compound: O=C(NCc1ccc(N2CCC(c3cc(Cl)cc(Cl)c3)(C(F)(F)F)C2)cc1Cl)NCC(F)(F)F (stereo not shown)
80

Next compound: O=C(NCc1ccc(N2CCC(c3cc(Cl)cc(Cl)c3)(C(F)(F)F)C2)cc1C(F)(F)F)C(F)F (stereo not shown)
95

Next compound: O=C(Cn1cncn1)NCc1ccc(N2CCC(c3cc(Cl)cc(Cl)c3)(C(F)(F)F)C2)cc1C(F)(F)F (stereo not shown)
80

Next compound: O=C(CC(F)(F)F)NCc1ccc(N2CCC(c3cc(Cl)cc(Cl)c3)(C(F)(F)F)C2)cc1C(F)(F)F (stereo not shown)
95

---

Listing of entries alongside the reported activity (mortality in %).
- System: Lucilia cuprina larvae
- protocolSummary: Lucilia cuprina test (larvae in minced horse meat)
- Assay type: in vivo
- studyConditions: application rate 100 ppm, larvae, after 2 days
- Protocol: Solvent: dimethyl sulfoxide To produce a suitable preparation of active compound, 10 mg of active compound are dissolved in 0.5 ml solvent, and the concentrate is diluted with water to the desired concentration. […] After 2 days mortality in % is determined 100% means that all the larvae have been killed; 0% means that none of the larvae have been killed.
Supply the numeric figure in %, leaving out any unit text.

1) O=S(=O)(CC(F)(F)F)NCc1ccc(N2CCC(c3cc(Cl)c(Cl)c(Cl)c3)(C(F)(F)F)C2)cc1C(F)(F)F (stereo not shown) [1-334]
90

Find the recorded activity (mortality in %) belonging to C=CCNC(=O)NCc1ccc(N2CCC(c3cc(Cl)cc(Cl)c3)(C(F)(F)F)C2)cc1Cl (stereo not shown) [1-87] and report it.
80

Next molecule: NCc1ccc(N2CCC(c3cc(C(F)(F)F)cc(C(F)(F)F)c3)(C(F)(F)F)C2)cc1Cl (stereo not shown) [1-306]
90

Next molecule: CC(C)(C)OC(=O)NCc1ccc(N2CCC(c3cc(Cl)c(Cl)c(Cl)c3)(C(F)(F)F)C2)cc1Cl (stereo not shown) [1-694]
80

---

- Tested on: Boophilus microplus
- protocolSummary: Boophilus microplus test (injection)
- Assay type: in vivo
- studyConditions: application rate 20 μg/animal, adult engorged females, after 7 days
measuredProperty: activity (100% means that all eggs are infertile) (%)
Supply the numeric figure in %, leaving out any unit text.

Recorded results for 4 compounds are shown here.
1) O=C(CCCl)NCc1ccc(N2CCC(c3cc(C(F)(F)F)cc(C(F)(F)F)c3)(C(F)(F)F)C2)cc1C(F)(F)F (stereo not shown)
100
2) C=CCSCC(=O)NCc1ccc(N2CCC(c3cc(Cl)c(Cl)c(Cl)c3)(C(F)(F)F)C2)cc1C(F)(F)F (stereo not shown)
100
3) O=C(CC(F)(F)F)NCc1ccc(N2CCC(c3cc(C(F)(F)F)cc(C(F)(F)F)c3)(C(F)(F)F)C2)cc1C(F)(F)F (stereo not shown)
100
4) C=CCSCC(=O)NCc1ccc(N2CCC(c3cc(C(F)(F)F)cc(C(F)(F)F)c3)(C(F)(F)F)C2)cc1C(F)(F)F (stereo not shown)
100

Give activity (100% means that all eggs are infertile) (Boophilus microplus) of the following compound: C#CCNC(=O)NCc1ccc(N2CCC(c3cc(Cl)cc(Cl)c3)(C(F)(F)F)C2)cc1C(F)(F)F (stereo not shown)
100

Next compound: CCNC(=O)NCc1ccc(N2CCC(c3cc(Cl)c(Cl)c(Cl)c3)(C(F)(F)F)C2)cc1C(F)(F)F (stereo not shown)
100

Next compound: NCc1ccc(N2CCC(c3cc(Cl)cc(Cl)c3)(C(F)(F)F)C2)cc1C(F)(F)F (stereo not shown)
100

---

- Test system: Lucilia cuprina larvae
- protocolSummary: Lucilia cuprina test (larvae in minced horse meat)
- Assay type: in vivo
- studyConditions: application rate 100 ppm, larvae, after 2 days
measuredProperty: activity (mortality in %)
Supply the numeric figure in %, leaving out any unit text.

Recorded results for 5 compounds are shown here.
1) CN(Cc1ccc(N2CCC(c3cc(Cl)cc(Cl)c3)(C(F)(F)F)C2)cc1Cl)C(=O)C1CC1 (stereo not drawn)
90
2) NCc1ccc(N2CCC(c3cc(Cl)c(Cl)c(Cl)c3)(C(F)(F)F)C2)cc1Cl (stereo not drawn)
90
3) O=C(NCc1ccccn1)c1sc(N2CCC(c3cc(Cl)cc(Cl)c3)(C(F)(F)F)C2)nc1C(F)(F)F (stereo not drawn)
80
4) Cc1nc(N2CCC(c3cc(Cl)cc(Cl)c3)(C(F)(F)F)C2)ncc1C(=O)NCC(F)(F)F (stereo not drawn)
90
5) CCCNC(=O)NCc1ccc(N2CCC(c3cc(Cl)cc(Cl)c3)(C(F)(F)F)C2)cc1Cl (stereo not drawn)
90

Find the recorded activity (mortality in %) belonging to CSCCNC(=O)NCc1ccc(N2CCC(c3cc(Cl)cc(Cl)c3)(C(F)(F)F)C2)cc1C(F)(F)F (stereo not drawn) and report it.
80

---

Listing of entries alongside the reported activity (mortality in %).
- Test system: Musca domestica
- protocolSummary: Musca domestica test (sugar sponge)
- Type: in vivo
- studyConditions: application rate 100 ppm, adults, after 2 days
Units required after the number.

1) C#CCNC(=O)NCc1ccc(N2CCC(c3cc(Cl)cc(Cl)c3)(C(F)(F)F)C2)cc1C(F)(F)F (stereo not drawn) [1-231]
95%
2) O=C(CC(F)(F)F)NCc1sc(N2CCC(c3cc(C(F)(F)F)cc(C(F)(F)F)c3)(C(F)(F)F)C2)nc1C(F)(F)F (stereo not drawn) [5-150]
95%
3) N#CCC(=O)NCc1ccc(N2CCC(c3cc(Cl)cc(Cl)c3)(C(F)(F)F)C2)cc1Cl (stereo not drawn) [1-39]
90%
4) O=C(NCCC(F)(F)F)NCc1ccc(N2CCC(c3cc(Cl)cc(Cl)c3)(C(F)(F)F)C2)cc1C(F)(F)F (stereo not drawn) [1-238]
90%
5) O=C(CC(F)(F)F)NCc1sc(N2CCC(c3cc(Cl)cc(Cl)c3)(C(F)(F)F)C2)nc1C(F)(F)F (stereo not drawn) [5-22]
95%

Find the recorded activity (mortality in %) belonging to CCC(=O)NCc1sc(N2CCC(c3cc(Cl)cc(Cl)c3)(C(F)(F)F)C2)nc1C(F)(F)F (stereo not drawn) [5-4] and report it.
85%

Next compound: CCSCC(=O)NCc1ccc(N2CCC(c3cc(Cl)cc(Cl)c3)(C(F)(F)F)C2)cc1C(F)(F)F (stereo not drawn) [1-499]
90%

Next compound: O=C(NCC(F)(F)F)c1sc(N2CCC(c3cc(Cl)c(Cl)c(Cl)c3)(C(F)(F)F)C2)nc1C(F)(F)F (stereo not drawn) [4-21]
90%

Next compound: CCNC(=O)NCc1ccc(N2CCC(c3cc(Cl)cc(Cl)c3)(C(F)(F)F)C2)cc1C(F)(F)F (stereo not drawn) [1-220]
90%

---

- Tested on: Boophilus microplus
- protocolSummary: Boophilus microplus (dip)
- Format: in vivo
- studyConditions: application rate 100 ppm, adult engorged females, after 7 days
Listing of entries alongside the reported activity (mortality in %).
Supply the numeric figure in %, leaving out any unit text.

Recorded results for 3 compounds are shown here.
1) CCNC(=O)NCc1ccc(N2CCC(c3cc(C(F)(F)F)cc(C(F)(F)F)c3)(C(F)(F)F)C2)cc1C(F)(F)F (stereo not shown) [1-302]
90
2) CC(C)CC(=O)NCc1ccc(N2CCC(c3cc(Cl)cc(Cl)c3)(C(F)(F)F)C2)cc1Cl (stereo not shown) [1-7]
80
3) CCNC(=O)NCc1ccc(N2CCC(c3cc(Cl)cc(Cl)c3)(C(F)(F)F)C2)cc1Cl (stereo not shown) [1-77]
80

Next up:
Find the recorded activity (mortality in %) belonging to CSCCC(=O)NCc1ccc(N2CCC(c3cc(Cl)cc(Cl)c3)(C(F)(F)F)C2)cc1Cl (stereo not shown) [1-467] and report it.
90
